This collection of values is drawn from the supplement of paper PMC9732359.

assay: protein stability index of a GFP-peptide fusion (yeast GPS) (PSI 1-4); higher = more stable; sorted into four equal gates, so the index is relative within each strain; settings: san1∆
Reported protein stability index values for a set of sequences

Previously resolved entries follow.
[[record]]
residue_sequence = "TTSEKQEVTNEAPFLTS [GAL11]"
recorded_measurement = 3.14

[[record]]
residue_sequence = "LRAIEKNDDNSCRNPEH [YIL149C/MLP2]"
recorded_measurement = 3.27

[[record]]
residue_sequence = "PSLKDSSSNGGGSAKPS [RPC53]"
recorded_measurement = 2.7

[[record]]
residue_sequence = "TSSNIVLETHESGIKPY [RPT6]"
recorded_measurement = 2.68

[[record]]
residue_sequence = "DMAILERYYELAFDKLN [ARP7]"
recorded_measurement = 1.31

[[record]]
residue_sequence = "HPTTIESLREIPYGPDF [SEC65]"
recorded_measurement = 3.01


If you can, please state the reported protein stability index value of TILYLNVFHGLCAGANN [IRR1] .
1.39

----------
assay: protein stability index of a GFP-peptide fusion (yeast GPS) (PSI 1-4); higher = more stable; sorted into four equal gates, so the index is relative within each strain; conditions: san1∆
measurement_name: protein stability index
No unit in the answer, only the number.

What value of protein stability index has been recorded for this entry: IRRYCDVVAHRQLAGAI [DIS3]
1.99

Suppose we examine the sequence QPIEKNGDKMPLKFKLG [YJR042W/NUP85] ; what protein stability index value has been reported?
2.52

Fill in the blank: the reported protein stability index of LTLKHRQNKVQHQRIVA [RPN10] is ____.
2.9

For the sequence ERDCVIAYGASQLLLER [RET1] , what protein stability index is on record?
1.24

Quick check: protein stability index of SMVLFFVCLSCSHIFTS [RPB9] ?
1.43

Which protein stability index value belongs to EITVVKPDSDIVALSSE [PRE6] ?
3.24

----------
Quick reference: protein stability index of the listed items.
experiment: protein stability index of a GFP-peptide fusion (yeast GPS) (PSI 1-4); higher = more stable; sorted into four equal gates, so the index is relative within each strain; conditions: doa10∆
A bare number is all that is needed in reply.

[[record]]
residue_sequence = "KVDGKVRTDTTYPAGFM [RPS4A]"
measurement_name = "protein stability index"
recorded_measurement = 3.41


I have this sequence here, WVFSYLRWFELKPKLYY [SIR3] , and I need its recorded protein stability index.
1.93

Which protein stability index is reported for this sequence? YIKSATLYSVKSKEDMK [SNU114]
3.22

What value of protein stability index has been recorded for this entry: VVEDKPLLSKKERLVRD [SMB1]
1.14

What does the record list as protein stability index for NNIRQAICRYANVIKAL [RRP4] ?
1.41

Form field: reported protein stability index of ERSYPSEFANQNQGGAQ [ROX3]
2.98

I have this sequence here, FDSTAFNATVDETKGFD [MED2] , and I need its recorded protein stability index.
3.25

Query (sequence): VKVSAAAGKANKQFAKF [RPS11A] ; field requested: protein stability index
2.64

Look up protein stability index: NIERKQTRKEYNTSILE [SIN4]
3.11

Suppose we examine the sequence LNVSNTKENGDFTLPED [PRP8] ; what protein stability index value has been reported?
2.98

Name the reported protein stability index value associated with the sequence VTLNKYCSGNIYDFHKM [YJL039C/NUP192]
2.7

Name the recorded protein stability index for STVKVSDLNLTDRQKKL [YLR018C/POM34] .
2.9

GET /values?readout=protein stability index&item= YTPEESAWIWPMDEETK [RPC25]
2.34

I would be grateful if you could share the reported protein stability index for DESLKDEATVPNTRDAE [SWI3] .
3.16
